Data origin, for the record: patent US5135955A

# Tested on: Candida albicans A26
# ASSAY COMMENT: in vitro antifungal activity, Candida albicans (MIC)
# Assay type: cell-based
# RECORDED CONDITIONS: 35° C., 48 hours, RPMI 1640 plus 10% fetal calf serum, 95-100% inhibition of growth, read-out: minimum inhibitory concentration (MIC), C.a.
Counter-ions that a name gives are not always drawn.
READOUT LABEL: MIC (µg/mL)
Respond numerically; units are µg/mL and should not be typed.

>>> df
                                   compound    measurement_target  numeric_value
0  CC(CCc1ccc(OCc2cccc(F)c2)cc1)N(C)C (centres unmarked) [Example 63, hydrochloride]  Candida albicans A26          0.625
1  CCCCOc1ccc(CCC(C)N(C)C)cc1 (centres unmarked) [Example 41, hydrochloride]  Candida albicans A26          0.156
2  CC(CCc1ccc(OCCn2cncn2)cc1)N(C)C (centres unmarked) [Example 62]  Candida albicans A26             10
3  CC(CCc1ccc(OCCC2CCCCC2)cc1)NCCN(C)C (centres unmarked) [Example 46, dihydrochloride]  Candida albicans A26             10

Consider now this further compound.
Note down MIC recorded for CCCCOc1ccc(CCC(C)N(C)CC)cc1 (centres unmarked) [Example 68, hydrochloride]
0.625

###

Reported plasma prothrombin time is given for each of the following molecules.
# Tested on: thromboplastin clotting time in human plasma
# ASSAY COMMENT: prothrombin time test (thromboplastin clotting time in human plasma)
# Assay type: biochemical
# RECORDED CONDITIONS: 180 micrograms per milliliter of plasma; 37° C.; human plasma
Where a name gives a salt, the structure may show the parent alone.

Example entries and their recorded answers appear below.
>>> print(df.to_string())
                                   molecule                        measurement_target            readout_label   result
0  CC(CCc1ccc(C(C)(C)C)cc1)N(C)C.Cl (stereo not shown)  thromboplastin clotting time in human plasma  plasma prothrombin time     37 s
1  Cl.NCC(Cc1ccc2c(c1)OCO2)c1ccc(-c2ccccc2)cc1 (stereo not shown)  thromboplastin clotting time in human plasma  plasma prothrombin time    222 s
2  Cl.NCC(Cc1ccc(-c2ccccc2)cc1)c1ccccc1 (stereo not shown)  thromboplastin clotting time in human plasma  plasma prothrombin time  > 300 s
3  CCCCCCCCCOc1ccc(CCC(C)NCCN2CCOCC2)cc1 (stereo not shown) [Example 53, dihydrochloride]  thromboplastin clotting time in human plasma  plasma prothrombin time    240 s
4  COc1cccc(C(CN)Cc2ccc3ccccc3c2)c1OC (stereo not shown)  thromboplastin clotting time in human plasma  plasma prothrombin time     50 s
5  CCCCCOc1ccc(CC(CN)c2ccc(-c3ccccc3)cc2)cc1.Cl (stereo not shown)  thromboplastin clotting time in human plasma  plasma prothrombin time     75 s
6  CCCCCOc1ccc(CC(CN)c2ccc(OC)c(OC)c2OC)cc1 (stereo not shown) [Example 19, hydrochloride]  thromboplastin clotting time in human plasma  plasma prothrombin time    174 s
7  CCCCCCCCOc1ccc(CC(CN)c2ccc(OC)c(OC)c2)cc1 (stereo not shown) [Example 17, hydrochloride]  thromboplastin clotting time in human plasma  plasma prothrombin time    240 s

Note down plasma prothrombin time recorded for CCCCCCOc1ccc(CC(CN)c2ccc3ccccc3c2)cc1.Cl (stereo not shown)
60 s

Note down plasma prothrombin time recorded for COc1ccc(C(CN)Cc2ccc(OC)c3ccccc23)cc1OC (stereo not shown) [Example 23, hydrochloride]
101 s

Note down plasma prothrombin time recorded for CC(CCc1ccc(OCc2ccc(F)cc2)cc1)N(C)C.Cl (stereo not shown)
75 s

Note down plasma prothrombin time recorded for CCCCCOc1ccc(CC(CN)c2ccc(OC)c(OC)c2)cc1 (stereo not shown)
80 s

Note down plasma prothrombin time recorded for CCCCCOc1ccc(CC(CN)c2ccccc2)cc1.Cl (stereo not shown)
> 300 s

###

# Tested on: thromboplastin clotting time in human plasma
# ASSAY COMMENT: prothrombin time test (thromboplastin clotting time in human plasma)
# Format: biochemical
# RECORDED CONDITIONS: 90 micrograms per milliliter of plasma; 37° C.; human plasma
Where a name gives a salt, the structure may show the parent alone.
READOUT LABEL: plasma prothrombin time (s)
Respond numerically; units are s and should not be typed.

Note down plasma prothrombin time recorded for CC(CCc1ccc(OCc2ccc(F)cc2)cc1)N(C)C.Cl (centres unmarked) [Example 82]
29

Note down plasma prothrombin time recorded for COCCOc1ccc(CCC(C)N(C)C)cc1.Cl (centres unmarked) [Example 76]
17

Note down plasma prothrombin time recorded for CC(CCc1ccc(OCC2CCCC2)cc1)N(C)C (centres unmarked) [Example 81]
25

Note down plasma prothrombin time recorded for Cl.NCC(Cc1ccc(-c2ccccc2)cc1)c1ccccc1 (centres unmarked) [Example 7]
200

Note down plasma prothrombin time recorded for CCCCCCCCCCOc1ccc(CCC(C)N)cc1 (centres unmarked) [Example 50, hydrochloride]
36

Note down plasma prothrombin time recorded for CCCCCCCCCCCCOc1ccc(CCC(C)NCCN(C)C)cc1 (centres unmarked) [Example 52]
20

Note down plasma prothrombin time recorded for COc1cccc(C(CN)Cc2ccc3ccccc3c2)c1OC (centres unmarked) [Example 25]
29

###

# System: thromboplastin clotting time in human plasma
# ASSAY COMMENT: prothrombin time test (thromboplastin clotting time in human plasma)
# Format: biochemical
# RECORDED CONDITIONS: 180 micrograms per milliliter of plasma; 37° C.; human plasma
Where a name gives a salt, the structure may show the parent alone.
Response key: MET means plasma prothrombin time >= 100 s; NOT MET means plasma prothrombin time < 100 s.

>>> df
                                   molecule  assigned_category
0  CCCCCCCCOc1ccc(CC(CN)c2cc(OC)c(OC)c(OC)c2)cc1 (stereo not drawn) [Example 18, hydrochloride]                MET
1  CCCCOc1ccc(CC(C)CN(C)C)cc1.Cl (stereo not drawn)            NOT MET
2  CCCCCCCOc1ccc(CC(CN)c2ccc(OC)c(OC)c2)cc1 (stereo not drawn)                MET
3  CCCCOc1ccc(CCC(C)N(C)C)cc1 (stereo not drawn) [Example 41, hydrochloride]            NOT MET
4  CC(CCc1ccc(OCCC(C)(C)C)cc1)N(C)C.Cl (stereo not drawn) [Example 75]            NOT MET
5  CNCC(Cc1ccc2c(c1)OCO2)c1ccccc1.Cl (stereo not drawn)            NOT MET
6  CCCCCCOc1ccc(CC(CNCC)c2ccccc2)cc1 (stereo not drawn)                MET
7  COc1ccc(C(CN)Cc2cccc3ccccc23)cc1 (stereo not drawn)            NOT MET

Hi team, for CCCCCCCCOc1ccc(CC(CN)c2ccccc2)cc1 (stereo not drawn) , is the recorded plasma prothrombin time at or above 100 s?
MET

###

# Test system: thromboplastin clotting time in human plasma
# ASSAY COMMENT: prothrombin time test (thromboplastin clotting time in human plasma)
# Type: biochemical
# RECORDED CONDITIONS: 180 micrograms per milliliter of plasma; 37° C.; human plasma
Where a name gives a salt, the structure may show the parent alone.
Response key: fulfilled means plasma prothrombin time >= 100 s; not fulfilled means plasma prothrombin time < 100 s.

Hi team, for CCCCCCOc1ccc(CC(CN)c2ccccc2)cc1 (stereo not drawn) , is the recorded plasma prothrombin time at or above 100 s?
fulfilled

Hi team, for CCCCCCCCOc1ccc(CC(CN)c2ccc(-c3ccccc3)cc2)cc1 (racemic) [Example 11, hydrochloride] , is the recorded plasma prothrombin time at or above 100 s?
not fulfilled

Hi team, for NCC(Cc1ccc(C(F)(F)F)cc1)c1ccccc1 (stereo not drawn) , is the recorded plasma prothrombin time at or above 100 s?
not fulfilled

###

Reported plasma prothrombin time is given for each of the following molecules.
# Tested on: thromboplastin clotting time in human plasma
# ASSAY COMMENT: prothrombin time test (thromboplastin clotting time in human plasma)
# Format: biochemical
# RECORDED CONDITIONS: 180 micrograms per milliliter of plasma; 37° C.; human plasma
Where a name gives a salt, the structure may show the parent alone.
Respond numerically; units are s and should not be typed.

>>> print(df.to_string())
                                   molecule  unit_name  numeric_value
0  CC(C)c1ccc(CC(CN)c2ccccc2)cc1.Cl (stereo not drawn) [Example 14]          s            101
1  CCCCCCCCCCOc1ccc(CCC(C)N)cc1 (stereo not drawn) [Example 50, hydrochloride]          s            100
2  COc1ccc(C(CN)Cc2ccc(-c3ccccc3)cc2)cc1OC (stereo not drawn) [Example 8, hydrochloride]          s            130
3  CCCCOc1ccc(CCC(C)N2CCCC2)cc1.Cl (stereo not drawn) [Example 77]          s             53
4  COc1ccc(C(CN)Cc2ccc(-c3ccccc3)cc2)cc1 (stereo not drawn) [Example 9]          s             25

Note down plasma prothrombin time recorded for CCCCCCCOc1ccc(CC(CN)c2ccc(C(CN)Cc3ccc(OCCCCCCC)cc3)cc2)cc1.Cl.Cl (stereo not drawn) [Example 13]
200

Note down plasma prothrombin time recorded for CCCCCCCOc1ccc(CCC(C)NCCN(C)C)cc1 (stereo not drawn) [Example 49, dihydrochloride]
260

Note down plasma prothrombin time recorded for CCCCCCOc1ccc(CC(CNCCN(C)C)c2cc(OC)c(OC)c(OC)c2)cc1.Cl.Cl (stereo not drawn) [Example 31]
150

Note down plasma prothrombin time recorded for CCCCCCOc1ccc(CC(CN)c2ccc(OC)c(OC)c2)cc1 (stereo not drawn) [Example 16, hydrochloride]
235
